Tested on: mAb 4F11(G1)
Assay: Western blot of purified recombinant thioredoxin fusion proteins probed with mAb 4F11
Assay type: binding, mouse
Conditions: purified thioredoxin fusion protein separated by SDS-PAGE
Ends that are not written are not given here.

- substance: "K70PRPQPTP77 (KPRPQPTP; not fully specified; printed as K70PRPQPTP77) [A1270-77]"
  reactivity with mAb 4F11 in Western blot: "positive reactivity"
- substance: "K856PAPKPTP863 (KPAPKPTP; not fully specified; printed as K856PAPKPTP863) [Kexin856-863]"
  reactivity with mAb 4F11 in Western blot: "positive reactivity"
- substance: "K865PAPKPAP872 (KPAPKPAP; not fully specified; printed as K865PAPKPAP872) [Kexin865-872]"
  reactivity with mAb 4F11 in Western blot: "positive reactivity"
